property-measured: melting point

See these solved cases before continuing.
[
  {
    "compound": "O=C(Nc1ccccc1)N1Cc2cccn2-c2ccsc2C1=O",
    "property-measured": "melting point",
    "data-value": "176 °C"
  },
  {
    "compound": "CC(O)c1ccc(-c2ccc(Cl)c(Cl)c2)o1 (stereo unspecified)",
    "property-measured": "melting point",
    "data-value": "82.5 to 83.5 °C"
  }
]

In plain terms, COC1(OC)CN(c2c(F)cc3c(=O)c(C(=O)O)cn(C4CC4)c3c2F)CC1C (stereo unspecified) has a documented melting point of 214 to 216 °C

In plain terms, COc1ccc2cc([C@H](C)C(=O)NNC(=O)CCCO[N+](=O)[O-])ccc2c1 has a documented melting point of 117 to 119 °C

In plain terms, CC(C)Oc1c(C(N)=O)oc2ccc(Cl)cc12 has a documented melting point of 154 to 155 °C

In plain terms, CCCC(CCC)C(=O)N[C@H](C(=O)N[C@H](CO)Cc1c[nH]c2ccccc12)[C@@H](C)CC has a documented melting point of 190 to 191 °C
